Tested on: RXF 393 renal
Assay: NCI tumour cell line growth inhibition, 48 h; in the data active means GI50 below about 0.43 µM; inactive means the rest
Classes used: active, inactive

> print(dat)
                                   compound       cat
1  NC1CCC(Nc2nc(NCc3ccc(-c4ccco4)nc3)c3ncn(C4CCCC4)c3n2)CC1 (stereo unspecified)    active
2    Cc1cc2nc(C(Cl)Cl)nc(-c3ccc(Cl)cc3)n2n1  inactive
3  O=C(NCCNc1nccc(-c2c(-c3cccc(O)c3)nc3sccn23)n1)c1ccccc1O  inactive
4  COc1cc(C(=O)/C=C/c2sc(Cl)nc2Cl)cc(OC)c1OC  inactive
5  COC(=O)Nc1nc2ccc(S(=O)c3ccccc3)cc2[nH]1 (stereo unspecified)  inactive
6        O=C(CCl)N1c2ccccc2Oc2ccc3ccccc3c21  inactive
